meta.source: the supplement of paper PMC4466140

biological target: ScRvs167; experiment: SPOT peptide array binding signal intensity (averaged, normalized) (arbitrary units (background-subtracted, floor 0; scale differs between SH3 domains)); higher = stronger binding of the SH3 domain to the peptide
SPOT peptide array binding signal intensity listing for selected binders.
Just the number.

Reference set, count: 4
1) VKPRQLFPIPLNKVD :: 48.3
2) NLKKRPPTAPQRKIS :: 708
3) TKHKAPPPPPPTAET :: 1.5
4) GRLRPKRIAPWHLIQ :: 27.7

Then there is this binder:
Prompt: // returns reported SPOT peptide array binding signal intensity for input "GATNNAPTLPKRKNP"
Completion: 960
